- target under test: TRPM7 WT (Mus musculus)
- Sequence (Q923J1 whole entry): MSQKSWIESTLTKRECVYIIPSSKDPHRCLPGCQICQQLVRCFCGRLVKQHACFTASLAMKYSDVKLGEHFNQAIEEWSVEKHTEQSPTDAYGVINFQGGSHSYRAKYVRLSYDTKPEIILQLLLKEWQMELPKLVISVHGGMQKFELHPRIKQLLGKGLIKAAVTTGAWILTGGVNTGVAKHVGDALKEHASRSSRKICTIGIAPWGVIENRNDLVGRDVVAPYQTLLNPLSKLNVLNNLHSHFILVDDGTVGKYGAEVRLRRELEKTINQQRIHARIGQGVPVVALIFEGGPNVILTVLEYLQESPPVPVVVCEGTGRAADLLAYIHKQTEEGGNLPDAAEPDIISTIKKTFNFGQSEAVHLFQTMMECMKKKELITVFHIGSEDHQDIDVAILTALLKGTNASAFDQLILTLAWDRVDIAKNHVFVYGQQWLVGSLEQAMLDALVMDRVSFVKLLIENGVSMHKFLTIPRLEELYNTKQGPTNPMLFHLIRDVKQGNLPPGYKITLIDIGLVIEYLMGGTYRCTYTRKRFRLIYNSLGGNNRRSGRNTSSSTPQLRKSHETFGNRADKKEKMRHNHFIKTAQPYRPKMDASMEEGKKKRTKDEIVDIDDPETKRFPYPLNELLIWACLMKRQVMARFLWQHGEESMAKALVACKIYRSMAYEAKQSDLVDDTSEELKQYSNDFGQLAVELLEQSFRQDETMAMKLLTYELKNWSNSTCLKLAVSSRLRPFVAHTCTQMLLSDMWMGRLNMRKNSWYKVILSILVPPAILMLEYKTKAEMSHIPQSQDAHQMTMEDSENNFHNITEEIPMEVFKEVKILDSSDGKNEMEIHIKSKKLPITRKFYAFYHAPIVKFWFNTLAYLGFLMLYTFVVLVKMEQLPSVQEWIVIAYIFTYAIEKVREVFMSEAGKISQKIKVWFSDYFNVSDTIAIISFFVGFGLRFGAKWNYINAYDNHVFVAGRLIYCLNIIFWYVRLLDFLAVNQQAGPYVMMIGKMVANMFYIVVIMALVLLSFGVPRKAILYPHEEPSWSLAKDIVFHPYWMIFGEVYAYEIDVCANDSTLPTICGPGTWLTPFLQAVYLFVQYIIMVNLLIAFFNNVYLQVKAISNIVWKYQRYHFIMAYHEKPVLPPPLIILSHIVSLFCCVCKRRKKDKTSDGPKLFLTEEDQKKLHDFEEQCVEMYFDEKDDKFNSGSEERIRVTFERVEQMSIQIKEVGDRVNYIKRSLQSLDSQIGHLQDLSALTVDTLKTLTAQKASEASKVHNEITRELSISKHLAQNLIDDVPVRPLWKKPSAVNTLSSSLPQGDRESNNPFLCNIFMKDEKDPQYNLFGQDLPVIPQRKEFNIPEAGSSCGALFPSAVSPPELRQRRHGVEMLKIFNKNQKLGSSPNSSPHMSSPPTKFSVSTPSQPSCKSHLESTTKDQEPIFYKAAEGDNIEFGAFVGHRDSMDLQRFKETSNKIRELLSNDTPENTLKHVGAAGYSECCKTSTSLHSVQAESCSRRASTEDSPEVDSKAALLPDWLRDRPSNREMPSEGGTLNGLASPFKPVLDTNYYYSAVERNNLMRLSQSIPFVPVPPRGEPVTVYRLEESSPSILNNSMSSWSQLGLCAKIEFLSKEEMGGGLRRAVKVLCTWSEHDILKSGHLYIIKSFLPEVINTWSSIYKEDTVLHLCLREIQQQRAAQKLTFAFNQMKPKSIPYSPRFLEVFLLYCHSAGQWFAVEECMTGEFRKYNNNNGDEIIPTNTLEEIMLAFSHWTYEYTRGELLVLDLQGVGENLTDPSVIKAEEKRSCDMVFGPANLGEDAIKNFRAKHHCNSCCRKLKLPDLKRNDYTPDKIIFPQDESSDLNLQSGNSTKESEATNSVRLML
- measurement notes: Aequorin-based Ca2+ influx assay, activation by naltriben
assay metric: pEC50
pEC50 is a log-scale quantity: -log10 of the concentration expressed in molar.

*Q* What measured pEC50 goes with Oc1ccc2c3c1O[C@H]1c4oc5ccccc5c4C[C@@]4(O)[C@@H](C2)N(CC2CC2)CC[C@]314 [Naltriben, naltriben] ?
*A* 4.18

###

- target under test: TRPM7-S744A (Mus musculus, UniProt Q923J1, S744A)
- measurement notes: Aequorin-based Ca2+ influx assay, activation by naltriben
assay metric: EC50 (µM)
Answer in µM, number only, no unit symbol.

*Q* What measured EC50 goes with Oc1ccc2c3c1O[C@H]1c4oc5ccccc5c4C[C@@]4(O)[C@@H](C2)N(CC2CC2)CC[C@]314 ?
*A* 71.8
